The reader will find reported MIC values listed item by item below.
- Test system: Streptococcus pneumoniae ATCC 49619
- assay-protocol: Broth microdilution MIC, S. pneumoniae ATCC 49619
- Format: cell-based
- condition-notes: ATCC49619, broth microdilution, 37° C., 20 hours, read-out: MIC S. pneumoniae ATCC 49619
measured-metric: MIC (µg/mL)

1. O=c1[nH]c(NCc2ccc(Cl)c(Cl)c2)nc2cnn(CCNCCn3ncc4nc(NCc5ccc(Cl)c(Cl)c5)[nH]c(=O)c43)c12    32
2. Cl.O=c1[nH]c(NCc2ccc(Cl)c(Cl)c2)nc2cnn(CCOCc3cccnc3)c12    4
3. Cl.O=C(c1cc[nH]n1)N1CCC(n2ncc3nc(NCc4ccc(Cl)c(Cl)c4)[nH]c(=O)c32)CC1    4
4. CSCOCCOCCn1ncc2nc(NCc3ccc(Cl)c(Cl)c3)[nH]c(=O)c21    4
5. O=c1[nH]c(NCc2ccc(Cl)c(Cl)c2)nc2cnn(C3CCOC3)c12 (centres unmarked)    4
6. CN(CCn1ncc2nc(NCc3ccc(Cl)c(Cl)c3)[nH]c(=O)c21)C(=O)c1cc(Cl)nnc1Cl    8
7. Cl.O=c1[nH]c(NCc2ccc(Cl)c(Cl)c2)nc2cnn(Cn3cncn3)c12    4
8. O=C(NCCn1ncc2nc(NCc3ccc(Cl)c(Cl)c3)[nH]c(=O)c21)c1cc(Cl)nnc1O    8
9. CCCCOCCOCCOCCn1ncc2nc(NCc3ccc(Cl)c(Cl)c3)[nH]c(=O)c21    8
10. Cl.O=c1[nH]c(NCc2ccc(Cl)c(Cl)c2)nc2cnn(CCNC3=NCCN3)c12    32
11. CNC(=O)C(CCCn1ncc2nc(NCc3ccc(Cl)c(Cl)c3)[nH]c(=O)c21)c1ccccc1 (centres unmarked)    16
12. O=c1[nH]c(NCc2ccc(Cl)c(Cl)c2)nc2cnn(CC3CCO3)c12 (centres unmarked)    4
13. Cl.O=c1[nH]c(NCc2ccc(Cl)c(Cl)c2)nc2cnn(CCc3cnccn3)c12    8
14. Cc1cc(CNc2nc3c(F)nn(CCOCCO)c3c(=O)[nH]2)ccc1F    32
15. Cl.O=c1[nH]c(NCc2ccc(Cl)c(Cl)c2)nc2cnn(Cc3coc(C4CCCNC4)n3)c12 (centres unmarked)    8
16. CCOC(=O)C1(Cn2ncc3nc(NCc4ccc(Cl)c(Cl)c4)[nH]c(=O)c32)CCNCC1.Cl    16
17. Cl.O=c1[nH]c(NCc2ccc(Cl)c(Cl)c2)nc2cnn(CCc3ccccn3)c12    4
18. CN1CCN(CCn2ncc3nc(NCc4ccc(Cl)c(Cl)c4)[nH]c(=O)c32)CC1=O    4
19. CC(=O)N1CCN(CCn2ncc3nc(NCc4ccc(Cl)c(Cl)c4)[nH]c(=O)c32)CC1.Cl    4
20. O=c1[nH]c(NCc2ccc(Cl)c(Cl)c2)nc2cnn(C3CC3)c12    4
21. CN(C)CC1CN(CCn2ncc3nc(NCc4ccc(Cl)c(Cl)c4)[nH]c(=O)c32)CCO1.Cl.Cl (centres unmarked)    8
22. CC(C)(CCCn1ncc2nc(NCc3ccc(Cl)c(Cl)c3)[nH]c(=O)c21)C(=O)O    8
23. Cl.O=c1[nH]c(NCc2ccc(Cl)c(Cl)c2)nc2cnn(CCN3CC(O)C3)c12    8
24. C=CCn1ncc2nc(NCc3ccc(Cl)c(Cl)c3)[nH]c(=O)c21    2
25. O=c1[nH]c(NCc2ccc(Cl)c(Cl)c2)nc2cnn(-c3ccncc3)c12    2
26. Cc1noc(C)c1C(=O)N(C)CCn1ncc2nc(NCc3ccc(Cl)c(Cl)c3)[nH]c(=O)c21    8
27. O=c1[nH]c(NCc2ccc(Cl)c(Cl)c2)nc2cnn(C[C@@H]3CO[C@H](CO)CO3)c12    8
28. O=C(O)C(CCCn1ncc2nc(NCc3ccc(Cl)c(Cl)c3)[nH]c(=O)c21)c1ccccc1 (centres unmarked)    16
